Test system: MDA-MB-468 breast
Test: NCI tumour cell line growth inhibition, 48 h; in the data active = GI50 below about 0.43 µM; inactive = the rest
Bench note: report the call from TRUE (active), FALSE (inactive)

Returns: the outcome recorded for C=C1CCC2C3(C)COC(c4ccc(N(C)C)cc4)OC3CCC2(C)C1C/C=C1/C(=O)OCC1O (centres undefined) in this assay. FALSE

What was the test verdict on CCCCCCCCCCCCCCCCCCOc1ccccc1CC(=O)OCC[N+]1(C)CCCCC1 ? FALSE

Which outcome was assigned to CCN(CC)CCCCNc1c2ccccc2[n+](C)c2c1[nH]c1ccccc12 in this test? TRUE

Recorded test outcome, item FC(F)(F)c1ccc(Nc2nc(-c3c(C(F)(F)F)nc4ccccn34)cs2)cc1 TRUE
